assay: Single oral dose pharmacokinetic study in dogs, varying the testosterone dose (Example 1); format: in vivo, dogs (female beagles); conditions: female, beagle, dog, serum, dose 100 mg, single oral, time 0.5 h
Parameter: concentration at 0.5 h (ng/mL)

| Compound | Parameter | Unit text | Endpoint value |
| --- | --- | --- | --- |
| C[C@]12CC[C@H]3[C@@H](CCC4=CC(=O)CC[C@@]43C)[C@@H]1CC[C@@H]2O [Testosterone, testosterone] | concentration at 0.5 h | ng/mL | 2.7 |

----------
assay: Single oral dose pharmacokinetic study in dogs, varying the testosterone dose (Example 1); format: in vivo, dogs (female beagles); details: female, beagle, dog, serum, dose 100 mg, single oral, time 1 h

| Molecule | Unit text | concentration at 1 h |
| --- | --- | --- |
| C[C@]12CC[C@H]3[C@@H](CCC4=CC(=O)CC[C@@]43C)[C@@H]1CC[C@@H]2O [Testosterone, testosterone] | ng/mL | 3.09 |
